# experiment summary: blockers of RIG-like receptor reporter activation – cell-based, Sendai virus stimulus, luciferase, 10K MLSCN set, TLR/RLR signaling modifier project, primary screen (AID 602276);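 also: firefly luciferase from ISG56 promoter only with Renilla not read in this screen; 0% = Sendai virus plus DMSO and 100% = medium plus DMSO without virus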
# experimental setup: HEK293 RL24 IRF3 luciferase reporter, at 10 µM, active compounds read high
Activity calls are given as the source filed them.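 The calls were made as follows: active = inhibition at or above 50% at 10 µM; inactive = inhibition below 50%.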
reported endpoint: inhibition

Consider the following illustrative entries.
{"columns": ["compound", "inhibition"],
 "data": [
  ["COc1cccc(OC)c1C(=O)n1nc(C)cc1C", "14.5% (inactive)"],
  ["O=C(CN1C(=O)NC(Cc2ccccc2)C1=O)Nc1ccccc1 (stereo unspecified)", "-15.9% (inactive)"],
  ["COc1ccc(CCN2C(=O)CC(N3CCOCC3)C2=O)cc1 (stereo unspecified)", "4.57% (inactive)"],
  ["Clc1ccc(Cl)c(-c2nn3c(Cn4cnc5ccccc54)nnc3s2)c1", "13.6% (inactive)"],
  ["CCCCN(CCCC)CCCNC(=O)CC1Oc2ccc(C)cc2NC1=O (stereo unspecified)", "17.2% (inactive)"],
  ["COc1ccc(CCN2C(=O)CCC2(C)C(=O)NCc2cccnc2)cc1OC (stereo unspecified)", "8.53% (inactive)"],
  ["CCOC(=O)C1CCN(S(=O)(=O)c2cc(Cl)c(C)cc2OC)CC1", "19.9% (inactive)"],
  ["O=C(NC1CCCCCC1)C1CCCN(S(=O)(=O)c2cccs2)C1 (stereo unspecified)", "-10.9% (inactive)"]
]}

GET /values?readout=inhibition&item= CCC(=NC(C)c1ccccc1)c1c(O)n(C)c(=O)n(C)c1=O (stereo unspecified)
8.09% (inactive)

Then this compound: `CCOc1ccc(NC(=O)COC(=O)Cn2cnnn2)cc1OCC`
10.8% (inactive)

Then this compound: CC(NC(=O)NC12CC3CC(CC(C3)C1)C2)C1CCCO1 (stereo unspecified)
15.3% (inactive)
